src = patent US20190284136A1

test system: HIV; assay: Table 1 IC50 of the examples (assay method not given; patent concerns inhibiting HIV replication); type: cell-based; conditions: Human immunodeficiency virus 1
Record form. Attribute: log10 of IC50. Fill in for each entry.
Remember, log10 of IC50, in nM.

Please indicate log10 of IC50 recorded for Cc1cc2c(c(-c3cc(F)c4c(c3C)CCCO4)c1[C@H](OC(C)(C)C)C(=O)O)CCN2C(=O)c1cc(Cl)ccc1Cl (atropisomer, axis not shown) [Example 68] 1.11

Please indicate log10 of IC50 recorded for COc1c(F)cccc1C(=O)N1CCc2c1cc(C)c([C@H](OC(C)(C)C)C(=O)O)c2-c1ccc(C)cc1 [Example 27] 0.85

Please indicate log10 of IC50 recorded for Cc1cc2c(c(-c3cc(F)c4c(c3C)CCCO4)c1[C@H](OC(C)(C)C)C(=O)O)CCN2C(=O)c1cc(Cl)cc(C(F)(F)F)c1 (atropisomer, axis not shown) [Example 147] 1.23

Please indicate log10 of IC50 recorded for Cc1ccc(C)c(C(=O)N2CCc3c2cc(C)c([C@H](OC(C)(C)C)C(=O)O)c3-c2cc(F)c3c(c2C)CCCO3)c1 (atropisomer, axis not shown) [Example 69] 0.70

Please indicate log10 of IC50 recorded for Cc1cc(F)ccc1Cn1ccc2c(-c3cc(F)c4c(c3C)CCCO4)c([C@H](OC(C)(C)C)C(=O)O)c(C)cc21 (atropisomer, axis not shown) [Example 199] 1.62

Please indicate log10 of IC50 recorded for Cc1cc2c(c(-c3cc(F)c4c(c3C)CCCO4)c1[C@H](OC(C)(C)C)C(=O)O)CCN2C(=O)c1ccc(C(F)(F)F)c(F)c1 (atropisomer, axis not shown) [Example 140] 1.15

Please indicate log10 of IC50 recorded for Cc1ccc(C(=O)N2c3cc(C)c([C@H](OC(C)(C)C)C(=O)O)c(-c4cc(F)c5c(c4C)CCCO5)c3CC2(C)C)cn1 (atropisomer, axis not shown) [Example 204] 1.28

Please indicate log10 of IC50 recorded for Cc1ccc(-c2c3c(cc(C)c2[C@H](OC(C)(C)C)C(=O)O)N(C(=O)c2ccc(C)c(F)c2)CC3)cc1 [Example 31] 1.08

Please indicate log10 of IC50 recorded for Cc1cc(F)cc(C(=O)N2CCc3c2cc(C)c([C@H](OC(C)(C)C)C(=O)O)c3-c2cc(F)c3c(c2C)CCCO3)c1 (atropisomer, axis not shown) [Example 97] 0.78

Please indicate log10 of IC50 recorded for COc1ccc(C(=O)N2CCc3c2cc(C)c([C@H](OC(C)(C)C)C(=O)O)c3-c2ccc(C)cc2)cc1 [Example 13] 1.04

Please indicate log10 of IC50 recorded for COc1cncc(C(=O)N2CCc3c2cc(C)c([C@H](OC(C)(C)C)C(=O)O)c3-c2cc(F)c3c(c2C)CCCO3)c1 [Example 151] 1.23

Please indicate log10 of IC50 recorded for Cc1cc2c(c(-c3cc(F)c4c(c3C)CCCO4)c1[C@H](OC(C)(C)C)C(=O)O)CCN2C(=O)c1cccc2c1OCCO2 (atropisomer, axis not shown) [Example 83] 0.85

Please indicate log10 of IC50 recorded for Cc1ccc(C(=O)N2CCc3c2cc(C)c([C@H](OC(C)(C)C)C(=O)O)c3-c2cc(F)c3c(c2C)CCCO3)cc1F (atropisomer, axis not shown) [Example 73] 0.78

Please indicate log10 of IC50 recorded for Cc1cc2c(c(-c3cc(F)c4c(c3C)CCCO4)c1[C@H](OC(C)(C)C)C(=O)O)CCN2C(=O)c1cc(Cl)ccc1F (atropisomer, axis not shown) [Example 145] 1.15

Please indicate log10 of IC50 recorded for COc1ccc(C(=O)N2CCc3c2cc(C)c([C@H](OC(C)(C)C)C(=O)O)c3-c2cc(F)c3c(c2C)CCCO3)cc1OC (atropisomer, axis not shown) [Example 86] 0.70

Please indicate log10 of IC50 recorded for COc1cc(C(F)(F)F)ccc1C(=O)N1CCc2c1cc(C)c([C@H](OC(C)(C)C)C(=O)O)c2-c1cc(F)c2c(c1C)CCCO2 (atropisomer, axis not shown) [Example 163] 0.95

Please indicate log10 of IC50 recorded for Cc1ccc(F)cc1C(=O)N1CCc2c1cc(C)c([C@H](OC(C)(C)C)C(=O)O)c2-c1cc(F)c2c(c1C)CCCO2 (atropisomer, axis not shown) [Example 80] 0.60

Please indicate log10 of IC50 recorded for Cc1ccc(C(=O)N2CCc3c2cc(C)c([C@H](OC(C)(C)C)C(=O)O)c3-c2cc(F)c3c(c2C)CCCO3)cc1Cl (atropisomer, axis not shown) [Example 115] 0.70

Please indicate log10 of IC50 recorded for Cc1cc2c(c(-c3cc(F)c4c(c3C)CCCO4)c1[C@H](OC(C)(C)C)C(=O)O)CCN2C(=O)c1ccncc1F (atropisomer, axis not shown) [Example 91] 2.19

Please indicate log10 of IC50 recorded for Cc1ccc(C(=O)N2CCc3c2cc(C)c([C@H](OC(C)(C)C)C(=O)O)c3-c2cc(F)c3c(c2C)CCCO3)cc1C(F)(F)F (atropisomer, axis not shown) [Example 146] 0.70

Please indicate log10 of IC50 recorded for COc1cc(OC)cc(C(=O)N2CCc3c2cc(C)c([C@H](OC(C)(C)C)C(=O)O)c3-c2cc(F)c3c(c2C)CCCO3)c1 (atropisomer, axis not shown) [Example 63] 0.60

Please indicate log10 of IC50 recorded for Cc1cc2c(c(-c3cc(F)c4c(c3C)CCCO4)c1[C@H](OC(C)(C)C)C(=O)O)CCN2C(=O)c1cc(Cl)ccn1 (atropisomer, axis not shown) [Example 103] 1.20
